# MEASURED_ON: MU opiate receptor (Cavia porcellus, UniProt A0ACM8Q262)
# Construct: 3H-DAGO displacement
# Sequence (A0ACM8Q262 1-400): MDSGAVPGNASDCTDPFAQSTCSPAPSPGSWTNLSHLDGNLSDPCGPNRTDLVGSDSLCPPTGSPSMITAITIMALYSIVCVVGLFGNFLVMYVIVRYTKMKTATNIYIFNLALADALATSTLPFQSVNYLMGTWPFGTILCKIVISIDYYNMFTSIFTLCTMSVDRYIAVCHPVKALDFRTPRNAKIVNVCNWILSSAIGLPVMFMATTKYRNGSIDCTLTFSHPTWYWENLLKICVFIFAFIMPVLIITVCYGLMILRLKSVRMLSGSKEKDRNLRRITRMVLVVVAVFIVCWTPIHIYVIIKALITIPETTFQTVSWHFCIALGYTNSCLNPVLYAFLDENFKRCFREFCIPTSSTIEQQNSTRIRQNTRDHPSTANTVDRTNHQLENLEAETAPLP
# ASSAY_OVERVIEW: opiate receptors binding, MU (3H-DAGO, guinea pig brain homogenate)
# ASSAY_SETUP: read-out: OPIATE RECEPTORS BINDING MU Ki, fresh guinea pig brain homogenate, 25° C., 40 min
Structures can show the parent of a compound that is named as a salt.
READOUT_KIND: pKi
For clarity, pKi is expressed as the negative log10 of concentration in mol/L.

>>> quantitative_result("O=C(Cc1ccc(C(F)(F)F)cc1)N1CCc2c(O)cccc2C1CN1CCCC1 (stereo not shown) [Example 34, hydrochloride hemihydrate]")
9.23

Q) # get_value(readout='pKi', item= O=C(Cc1ccc(Cl)c(Cl)c1)N1CCc2c(O)cccc2C1CN1CCCC1 (stereo not shown) )
A) 9.16

Q) # get_value(readout='pKi', item= C[C@@H]1Cc2ccccc2[C@H](CN2CCCC2)N1C(=O)Cc1ccc(Cl)c(Cl)c1 (relative stereo) )
A) 7.83

Q) # get_value(readout='pKi', item= O=C(Cc1ccc(C(F)(F)F)cc1)N1CCc2c(O)cccc2C1CN1CCCCC1 (stereo not shown) [Example 37, hydrochloride] )
A) 8.27

The values you see were collected from patent US4954509A.
